Kindly state nuclear beta-catenin stimulation for each of the entries shown.
experiment description: stimulators of nuclear beta-catenin in C2C12, primary screen, imaging, WNT3A-conditioned medium, mouse C2C12, NPC library (AID 1117326); further: reference of the scale not given here
cond: at 10 µM, stronger effect = higher value
Please reply with the bare figure in % and do not write the unit itself.

Prompt: Consider the compound shown here: CC1CCCCN1CCCOC(=O)c1ccc(OC2CCCCC2)cc1 (stereo unspecified) What is its recorded nuclear beta-catenin stimulation?
Response: 14.4

Prompt: For the compound shown here, CO[C@@H]1[C@@H](OC)[C@H](C)[C@@](O)(CC(=O)O)O[C@H]1[C@H](C)[C@H]1O[C@@]2(CC[C@@](C)([C@H]3CC[C@@](C)([C@@H]4O[C@@H]([C@H]5O[C@](C)(O)[C@H](C)C[C@@H]5C)C[C@@H]4OC4C[C@H](OC)[C@@H](OC)[C@H](C)O4)O3)O2)C[C@H](O)[C@H]1C (stereo partly specified) , give the reported nuclear beta-catenin stimulation.
Response: -1.1

Prompt: Entry "CCN(CC)CCOc1ccccc1C(=O)CCc1ccccc1" has what nuclear beta-catenin stimulation?
Response: -0.8

Prompt: Quick one: nuclear beta-catenin stimulation for "COc1ccc2nc(NC(=O)Nc3ccccc3)sc2c1" ?
Response: 0.5

Prompt: What nuclear beta-catenin stimulation value was documented for this compound, "CC1(C)OC[C@@H]2O[C@@]3(C(=O)O)OC(C)(C)O[C@H]3[C@@H]2O1" ?
Response: -1.7

Prompt: Fill in: nuclear beta-catenin stimulation of "Cc1ccc(O)c2ncccc12" is ___
Response: 30.3

Prompt: What nuclear beta-catenin stimulation value was documented for this compound, "CC(C)(C)c1cc(C=O)cc(C(C)(C)C)c1O" ?
Response: 2

Prompt: GET /values?readout=nuclear beta-catenin stimulation&item= "CN1CCC[C@@H]1c1cccnc1"
Response: -0.7

Prompt: Entry CCCCCCCCCCCCCCCCCC(=O)OCC(O)CO (stereo unspecified) : reported nuclear beta-catenin stimulation = ?
Response: -0.4

Prompt: Fill in the blank: the reported nuclear beta-catenin stimulation of CCOC(=O)C(O)c1ccccc1 (stereo unspecified) is ____.
Response: 1.9

Prompt: nuclear beta-catenin stimulation for "CC1(C)CO[C@@H](CC(=O)O)CN1" ?
Response: -0.7

Prompt: Which nuclear beta-catenin stimulation value is on record for O=C(c1ccccc1)c1ccc2n1CCC2C(=O)O (stereo unspecified) ?
Response: -0.4

Prompt: Consider the compound shown here: "C[C@]12CCC(=O)C=C1CC[C@@H]1[C@@H]2[C@@H](O)C[C@@]2(C)[C@H]1CC[C@]2(O)C(=O)CO" What is its recorded nuclear beta-catenin stimulation?
Response: -0.3

Prompt: May I ask what nuclear beta-catenin stimulation has been recorded for "N[C@H](C(=O)O)c1ccc(O)cc1" ?
Response: 2.5

Prompt: Could you tell me which nuclear beta-catenin stimulation is on file for "CC(=O)O[C@H]1C[C@@H]2CC[C@H]3[C@H]4C[C@H]([N+]5(C)CCCCC5)[C@@H](OC(C)=O)[C@@]4(C)CC[C@@H]3[C@@]2(C)C[C@H]1[N+]1(C)CCCCC1" ?
Response: 0.7

Prompt: Which measured nuclear beta-catenin stimulation value corresponds to "NS(=O)(=O)c1cc(-c2nn[nH]n2)c(NCc2cccs2)cc1Cl" ?
Response: -3
